conditions: buffer; pH 7.4; 200.0 µM
Cut-off 40 µg/mL on solubility kinetic, inclusive. At or above means 1.0; below means 0.0.

solubility kinetic >= 40 µg/mL for COc1ccc(NC(=O)C2CC(c3ccc(Cl)cc3)=NO2)cc1 (centres undefined) ?
0.0

Do the same for CC(=O)Nc1ccc(OCc2ccc3c(c2)OCO3)cc1 please
0.0

Also CCOc1ccc(N2C(=O)C3C4C=CC([C@H]5CC45)[C@@H]3C2=O)cc1 (some centres undefined) ?
0.0

For Cc1ccc(S(=O)(=O)NC(=O)Nc2cccc(C)n2)cc1 then?
1.0

Please give the result for CC(C)(C)OC(=O)N1CCC(CNC(=O)c2cccs2)CC1 too.
1.0

One more compound: CC(C)CNC(=S)N1CCC(NC(=O)c2ccco2)CC1
1.0

Note, next up: CC(=O)Nc1cccc(C(=O)OCC(=O)c2ccccc2Cl)c1
1.0

What do we get for O=C(NCc1ccccc1Br)c1ccc2c(c1)OCCO2 ?
0.0

Can you check COc1ccc(C=O)cc1CSc1ccccn1 next?
0.0

Entry to check: CN(C(=O)CSc1ccc2c(c1)OCCO2)c1ccccc1
1.0

For CC(C)NC(=O)c1ccc(COc2cc(Cl)ccc2Cl)o1 then?
0.0

Repeat for the following compound: CC(=O)NCCC(=O)Nc1nc(-c2ccc3c(c2)OCCO3)cs1
0.0

Cool, now O=C(COc1ccc2ccc(=O)oc2c1)NC1CCS(=O)(=O)C1 (centres undefined)
1.0

// repeat for COc1cc2c(C#N)c(N3CCc4ccccc4C3)nc(N)c2c(N)n1 and report
0.0

Also need O=C(COC(=O)c1ccc(F)c(S(=O)(=O)N2CCOCC2)c1)NCc1ccc(F)cc1 , thanks.
1.0

Repeat for the following compound: COCCn1c(N)c(N(Cc2ccccc2)C(=O)c2cc(=O)[nH]c3ccccc23)c(=O)[nH]c1=O
1.0

Next entry: O=C(CNc1cccc(S(=O)(=O)N2CCCC2)c1)Nc1cccc(C(F)(F)F)c1
0.0

Thanks! And Cc1ccc(NC(=O)NCCCCc2ccccc2)cc1 ?
0.0

Field entry: CC(=O)Nc1cccc(NC(=O)C2CC(=O)N(CCc3ccc(F)cc3)C2)c1 (centres undefined)
0.0

Then COc1ccc(/C=N/NC(=O)c2ccncc2)c(C(=O)O)c1OC ?
1.0

Another: Nc1ccc(-c2nc3ccccc3s2)cn1
0.0

One more compound: COC(=O)c1sc(SC)nc1N
0.0
